# target.or.system: mushroom tyrosinase (Agaricus bisporus, UniProt C7FF04)
# Sequence (C7FF04 1-392 limits assumed): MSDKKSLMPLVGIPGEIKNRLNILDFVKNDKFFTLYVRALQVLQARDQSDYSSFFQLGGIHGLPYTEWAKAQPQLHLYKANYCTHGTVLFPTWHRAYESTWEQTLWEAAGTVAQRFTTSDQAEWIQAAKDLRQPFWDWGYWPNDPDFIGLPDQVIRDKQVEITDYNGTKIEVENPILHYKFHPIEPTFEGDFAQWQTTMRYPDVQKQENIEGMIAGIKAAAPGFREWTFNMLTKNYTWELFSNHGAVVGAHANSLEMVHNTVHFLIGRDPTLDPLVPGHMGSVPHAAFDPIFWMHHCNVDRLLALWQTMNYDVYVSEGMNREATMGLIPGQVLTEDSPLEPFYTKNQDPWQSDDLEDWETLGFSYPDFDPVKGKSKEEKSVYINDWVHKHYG
assay.metric: pKi
Expect pKi as a plain number equal to -log10 of the molar concentration.

Form: Entry = COc1ccc(C(C)=O)c(OCc2cn(Cc3cc(=O)c(O)co3)nn2)c1 [Compound 13t] | System = mushroom tyrosinase (Agaricus bisporus, UniProt C7FF04) | pKi = ____
6.44

====

# target.or.system: mushroom tyrosinase (Agaricus bisporus)
# assay.notes: biochemical
assay.metric: pIC50
Expect pIC50 as a plain number equal to -log10 of the molar concentration.

Use the examples below as a reference point.
molecule | target.or.system | pIC50
COc1ccc(C(C)=O)c(OCc2cn(Cc3cc(=O)c(O)co3)nn2)c1 [Compound 13t] | mushroom tyrosinase (Agaricus bisporus) | 5.87
CC(=O)c1ccc(OCc2cn(Cc3cc(=O)c(O)co3)nn2)cc1 [Compound 13d] | mushroom tyrosinase (Agaricus bisporus) | 5.00

For Nc1ccc(C(=O)Nc2nnc(SCc3cn(Cc4cc(=O)c(O)co4)nn3)s2)cc1 [Compound 6i] , what is its reported pIC50?
4.79

For COc1ccc(C(=O)Nc2nnc(SCc3cn(Cc4cc(=O)c(O)co4)nn3)s2)cc1 [Compound 6h] , what is its reported pIC50?
5.26
